- study target: Mutant CD33-GFP M18 (353AAL) on 293FT cells (UniProt P20138)
- experimental details: FACS, mutant CD33-GFP on 293FT cells
# Lookup of reported FACS binding data keyed by entry
Number, no unit, nothing else.

So what's the measured FACS binding data for this one? sdCD33_10 (VHH) VHH: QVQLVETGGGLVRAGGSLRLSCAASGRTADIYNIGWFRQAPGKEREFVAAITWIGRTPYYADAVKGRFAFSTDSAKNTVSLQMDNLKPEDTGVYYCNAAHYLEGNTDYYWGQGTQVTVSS
15.6

Next entry: sdCD33_9 (VHH, sdAb from a naive llama phage library; also called 426; sdAb426) VHH: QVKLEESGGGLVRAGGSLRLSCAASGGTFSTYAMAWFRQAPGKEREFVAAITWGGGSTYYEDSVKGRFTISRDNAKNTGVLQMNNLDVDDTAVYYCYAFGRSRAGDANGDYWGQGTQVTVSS
99.3

Next entry: sdCD33_7 (VHH, sdAb from a naive llama phage library; also called 420; sdAb420) VHH: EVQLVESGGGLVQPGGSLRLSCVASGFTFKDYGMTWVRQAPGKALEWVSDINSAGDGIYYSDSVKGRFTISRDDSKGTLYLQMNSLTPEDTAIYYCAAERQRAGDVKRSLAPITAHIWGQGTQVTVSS
99.1

Next entry: sdCD33_4 (VHH) VHH: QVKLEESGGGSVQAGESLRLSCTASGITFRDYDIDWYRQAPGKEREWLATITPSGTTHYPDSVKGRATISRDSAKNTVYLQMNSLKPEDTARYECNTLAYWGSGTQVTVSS
99.5

Each recorded value in this set is attributed to patent US20230365675A1.
